# system_name: Recombinant human his-tagged IGF 1R extracellular domain protein (human) (UniProt P08069)
# experiment_summary: SPR, captured IgG, IGF-1R ECD-his analyte, dissociation pH 6
Reported koff by item:
Supply the numeric figure in s⁻¹, leaving out any unit text.

# binder, koff (s⁻¹)
records = [
    ("VRDN-02556 (antibody, V domains shown) VH: EVQLVQSGGGLVKPGGSLRLSCAASGFTFSSFAMHWVRQAPGKGLEWISVIDTRGATYYADSVKGRFTISRDNAKNSLYLQMNSLRAEDTAVYYCARLGNFYYHMDVWGQGTTVTVSS VL: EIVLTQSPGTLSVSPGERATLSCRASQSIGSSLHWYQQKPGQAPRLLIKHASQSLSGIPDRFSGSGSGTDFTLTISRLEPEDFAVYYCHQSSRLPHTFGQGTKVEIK", 0.0146),
]

Data request: Identify measured koff associated with VRDN-02525 (antibody, V domains shown) VH: EVQLVQSGGGLVKPGGSLRLSCAASGFTFSSFAMHWVRQAPGKGLEWISVIDTRGATYYADSVKGRFTISRDNAKNSLYLQMNSLRAEDTAVYYCARLGNFYYGHDVWGQGTTVTVSS VL: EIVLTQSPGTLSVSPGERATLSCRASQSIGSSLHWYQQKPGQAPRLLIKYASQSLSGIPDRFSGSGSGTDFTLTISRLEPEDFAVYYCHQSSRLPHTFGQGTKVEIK
Data returned: 0.000147
